Ref: patent US8722622B2

Experiment: Stability of linkers L1-L4 conjugated to FGF21 (LC-MS)
Assay type: physicochemical
Details: +4° C., 72 hrs
readout label: 0 linker (unconjugated protein) (%)
Numbers only, in %.

Exercise: Would you mind telling me what 0 linker (unconjugated protein) value was observed for L4-FGF21ΔH-A129C: Linker-4 conjugated to FGF21ΔH-A129C protein (Table 4; Table 5 row L4) (conjugate, UniProt Q9NSA1 29-209, looked up, variant H1* A129C, Linker-4 attached) Fibroblast growth factor 21: PIPDSSPLLQFGGQVRQRYLYTDDAQQTEAHLEIREDGTVGGAADQSPESLLQLKALKPGVIQILGVKTSRFLCQRPDGALYGSLHFDPEACSFRELLLEDGYNVYQSEAHGLPLHLPGNKSPHRDPCPRGPARFLPLPGLPPALPEPPGILAPQPPDVGSSDPLSMVGPSQGRSPSYAS ?
Key: 21
